- Tested on: muMax20 (Max(13-93) K31hArg/K57hArg, M65Nle)
- ASSAY_NAME: PBM 8-mer E-score (E-score (rank enrichment, -0.5 to 0.5)); higher = stronger preferential binding
The full ranking holds about 33,000 sequences; the median of “E-score (rank enrichment, -0.5 to 0.5)” is about -0.0068, and the highest 2% start at about 0.24. What follows is part of a selection rich in the highest values, with near analogues and random picks from the rest.
MEASURE: PBM 8-mer E-score

INSERT INTO results (chain, data_value) VALUES
  ('ATTAAACA', 0.132),
  ('AGATATGA', 0.028),
  ('GTCCTAAA', 0.0453),
  ('TCACATGA', 0.173),
  ('AGATGTGC', -0.0232),
  ('ATACCATA', 0.298),
  ('CCTAGACA', -0.0468),
  ('AAAAAGCC', 0.166),
  ('CTAGCGAA', -0.129),
  ('ACCCACGC', 0.109),
  ('ATTAAAAC', 0.269),
  ('ATCCTACA', -0.0539),
  ('GCTTATTA', 0.178),
  ('TGGTTACA', 0.0957),
  ('CTTCTCAA', 0.0152),
  ('ATATACGA', 0.247),
  ('GCACATGA', 0.256),
  ('GCGGCATA', -0.00641),
  ('CCACATGA', 0.225),
  ('ACATACGC', 0.078),
  ('ATTAAACC', 0.164),
  ('CACACGTC', 0.0717),
  ('TAAAACCA', 0.131),
  ('ATCTACTA', 0.278),
  ('GCGCGAAC', -0.0762),
  ('AAACTTGA', 0.241),
  ('AGCACCCG', -0.159),
  ('AATTAAAG', 0.108),
  ('AAACATGT', 0.331),
  ('ATATACTA', 0.308),
  ('ATAGCAAT', 0.171),
  ('ACATGTCC', 0.132),
  ('ATGTTACA', 0.239),
  ('GGAGCCCA', -0.156),
  ('ATTGTTTA', 0.103),
  ('AACACGTG', 0.481),
  ('CGAGATCC', -0.163),
  ('CTGTAAAG', -0.0854),
  ('ATATTAAC', 0.196),
  ('AAAAACCT', 0.25),
  ('AATTATTA', 0.309),
  ('AATGCTAA', 0.12),
  ('ATATTAAG', 0.163),
  ('AAAAAGAC', 0.0949),
  ('GATTAAAC', 0.134),
  ('ACATCGTA', 0.101),
  ('ATTAAACG', 0.287),
  ('TCATACGA', 0.2),
  ('AATTATTG', 0.191),
  ('AGTGGCCC', -0.0606),
  ('AATTATTC', 0.101),
  ('AGGGGGCA', -0.0171),
  ('CTGTTACA', 0.0334),
  ('AACCACGA', 0.141),
  ('AGGAACTA', -0.0068),
  ('ATATTTAA', 0.344),
  ('CATTATTA', 0.242),
  ('ATGTAAAG', 0.244),
  ('CCGAGTAA', -0.0803),
  ('ATCTACTC', -0.0945),
  ('CAACCGAC', 0.0428),
  ('CACACGTG', 0.426),
  ('AACGACCA', 0.0599),
  ('AAAAAGCA', 0.218),
  ('ATATTAAA', 0.326),
  ('CCACATGC', 0.217),
  ('ACACATGA', 0.148),
  ('ACACATGC', 0.22),
  ('CATCTCAC', -0.0239),
  ('AATCACCA', 0.133),
  ('ACATGTGC', 0.265),
  ('AAAACCTA', 0.269),
  ('ACATTTAA', 0.258),
  ('CCTCGACA', -0.0844),
  ('AAACTTGC', 0.203),
  ('CTACCAAC', 0.118),
  ('ACCCACGT', 0.341),
  ('AAAAACCG', 0.0778),
  ('ATATTAAT', 0.238),
  ('GATTATTA', 0.118),
  ('ATGTTACC', 0.106),
  ('ACACCGAT', -0.183),
  ('GAGTGGCA', -0.0109),
  ('AAAAACCA', 0.244),
  ('AACGCATA', 0.0704),
  ('CTATACTA', 0.081),
  ('CCGGATAA', -0.0458),
  ('AACCACGT', 0.369),
  ('GTTGTTTA', 0.32),
  ('ATCTACTG', -0.00673),
  ('CCGTTAAA', -0.00804);

* * *

- System: muMax20 (Max(13-93) K31hArg/K57hArg, M65Nle)
- ASSAY_NAME: PBM 8-mer E-score (E-score (rank enrichment, -0.5 to 0.5)); higher = stronger preferential binding
Whole data set: some 33,000 sequences, median “E-score (rank enrichment, -0.5 to 0.5)” near -0.0068, cut for the highest 2% near 0.24. What follows is part of a selection rich in the highest values, with near analogues and random picks from the rest.
Recorded PBM 8-mer E-score, one value per entry.
MEASURE: PBM 8-mer E-score

INSERT INTO measurements (chain, tgt, measure, data_value) VALUES
  ('AGTATACT', 'muMax20 (Max(13-93) K31hArg/K57hArg, M65Nle)', 'PBM 8-mer E-score', 0.258),
  ('AAGTATAC', 'muMax20 (Max(13-93) K31hArg/K57hArg, M65Nle)', 'PBM 8-mer E-score', 0.259),
  ('TACGATAA', 'muMax20 (Max(13-93) K31hArg/K57hArg, M65Nle)', 'PBM 8-mer E-score', 0.247),
  ('CTTCCCTC', 'muMax20 (Max(13-93) K31hArg/K57hArg, M65Nle)', 'PBM 8-mer E-score', 0.0647),
  ('ACATACAA', 'muMax20 (Max(13-93) K31hArg/K57hArg, M65Nle)', 'PBM 8-mer E-score', 0.137),
  ('ACATACAT', 'muMax20 (Max(13-93) K31hArg/K57hArg, M65Nle)', 'PBM 8-mer E-score', 0.243),
  ('ATTATGTA', 'muMax20 (Max(13-93) K31hArg/K57hArg, M65Nle)', 'PBM 8-mer E-score', 0.247),
  ('CACATAAA', 'muMax20 (Max(13-93) K31hArg/K57hArg, M65Nle)', 'PBM 8-mer E-score', 0.219),
  ('AGTATACA', 'muMax20 (Max(13-93) K31hArg/K57hArg, M65Nle)', 'PBM 8-mer E-score', 0.175),
  ('GTTGCGCA', 'muMax20 (Max(13-93) K31hArg/K57hArg, M65Nle)', 'PBM 8-mer E-score', -0.0795),
  ('ACAGAATG', 'muMax20 (Max(13-93) K31hArg/K57hArg, M65Nle)', 'PBM 8-mer E-score', 0.088),
  ('AGATGTAT', 'muMax20 (Max(13-93) K31hArg/K57hArg, M65Nle)', 'PBM 8-mer E-score', 0.177),
  ('GACGCTCC', 'muMax20 (Max(13-93) K31hArg/K57hArg, M65Nle)', 'PBM 8-mer E-score', -0.151),
  ('GACGATAA', 'muMax20 (Max(13-93) K31hArg/K57hArg, M65Nle)', 'PBM 8-mer E-score', 0.0693),
  ('ACATGTCG', 'muMax20 (Max(13-93) K31hArg/K57hArg, M65Nle)', 'PBM 8-mer E-score', 0.189),
  ('ACATGTCT', 'muMax20 (Max(13-93) K31hArg/K57hArg, M65Nle)', 'PBM 8-mer E-score', 0.183),
  ('GTCCAGGA', 'muMax20 (Max(13-93) K31hArg/K57hArg, M65Nle)', 'PBM 8-mer E-score', -0.157),
  ('ATTATGTC', 'muMax20 (Max(13-93) K31hArg/K57hArg, M65Nle)', 'PBM 8-mer E-score', 0.066),
  ('ACATGTAA', 'muMax20 (Max(13-93) K31hArg/K57hArg, M65Nle)', 'PBM 8-mer E-score', 0.249),
  ('ATATACAA', 'muMax20 (Max(13-93) K31hArg/K57hArg, M65Nle)', 'PBM 8-mer E-score', 0.229),
  ('ATATACAT', 'muMax20 (Max(13-93) K31hArg/K57hArg, M65Nle)', 'PBM 8-mer E-score', 0.247),
  ('GATCCCGA', 'muMax20 (Max(13-93) K31hArg/K57hArg, M65Nle)', 'PBM 8-mer E-score', -0.329),
  ('CCATACAG', 'muMax20 (Max(13-93) K31hArg/K57hArg, M65Nle)', 'PBM 8-mer E-score', -0.0198),
  ('ACATGTAG', 'muMax20 (Max(13-93) K31hArg/K57hArg, M65Nle)', 'PBM 8-mer E-score', 0.255),
  ('AACTTCTT', 'muMax20 (Max(13-93) K31hArg/K57hArg, M65Nle)', 'PBM 8-mer E-score', 0.155),
  ('ATAATGTA', 'muMax20 (Max(13-93) K31hArg/K57hArg, M65Nle)', 'PBM 8-mer E-score', 0.276),
  ('CAAGCCAA', 'muMax20 (Max(13-93) K31hArg/K57hArg, M65Nle)', 'PBM 8-mer E-score', -0.034),
  ('AGGCACGA', 'muMax20 (Max(13-93) K31hArg/K57hArg, M65Nle)', 'PBM 8-mer E-score', 0.109),
  ('GCATGTAC', 'muMax20 (Max(13-93) K31hArg/K57hArg, M65Nle)', 'PBM 8-mer E-score', 0.15),
  ('ACTATAGA', 'muMax20 (Max(13-93) K31hArg/K57hArg, M65Nle)', 'PBM 8-mer E-score', 0.117),
  ('ACTATAGT', 'muMax20 (Max(13-93) K31hArg/K57hArg, M65Nle)', 'PBM 8-mer E-score', 0.243),
  ('ACGTTCCT', 'muMax20 (Max(13-93) K31hArg/K57hArg, M65Nle)', 'PBM 8-mer E-score', 0.0666),
  ('GGGCCCCC', 'muMax20 (Max(13-93) K31hArg/K57hArg, M65Nle)', 'PBM 8-mer E-score', -0.386),
  ('TCATGTAA', 'muMax20 (Max(13-93) K31hArg/K57hArg, M65Nle)', 'PBM 8-mer E-score', 0.112),
  ('ATATACAC', 'muMax20 (Max(13-93) K31hArg/K57hArg, M65Nle)', 'PBM 8-mer E-score', 0.169),
  ('CACGATAA', 'muMax20 (Max(13-93) K31hArg/K57hArg, M65Nle)', 'PBM 8-mer E-score', 0.17),
  ('CACATACG', 'muMax20 (Max(13-93) K31hArg/K57hArg, M65Nle)', 'PBM 8-mer E-score', 0.0977),
  ('AAGTATAA', 'muMax20 (Max(13-93) K31hArg/K57hArg, M65Nle)', 'PBM 8-mer E-score', 0.215),
  ('ACATGTAC', 'muMax20 (Max(13-93) K31hArg/K57hArg, M65Nle)', 'PBM 8-mer E-score', 0.286),
  ('AAAAGGGT', 'muMax20 (Max(13-93) K31hArg/K57hArg, M65Nle)', 'PBM 8-mer E-score', 0.017),
  ('CCATGTAC', 'muMax20 (Max(13-93) K31hArg/K57hArg, M65Nle)', 'PBM 8-mer E-score', 0.0415),
  ('ACTATAGG', 'muMax20 (Max(13-93) K31hArg/K57hArg, M65Nle)', 'PBM 8-mer E-score', 0.0643),
  ('AGATACAG', 'muMax20 (Max(13-93) K31hArg/K57hArg, M65Nle)', 'PBM 8-mer E-score', 0.218),
  ('ATCATACA', 'muMax20 (Max(13-93) K31hArg/K57hArg, M65Nle)', 'PBM 8-mer E-score', 0.28),
  ('AATAGGGG', 'muMax20 (Max(13-93) K31hArg/K57hArg, M65Nle)', 'PBM 8-mer E-score', 0.0563),
  ('AGTATACC', 'muMax20 (Max(13-93) K31hArg/K57hArg, M65Nle)', 'PBM 8-mer E-score', 0.077);
